Target: T1, human IL-23R-mouse Fc fusion protein (human; mouse, UniProt Q5VWK5 24-353)
T1 construct: Expressed in FreeStyle 293 cells; also called human IL-23R-Fc fusion protein; not shown: Fc region of mouse immunoglobulin IgG2a as encoded by vector pFUSE-mIgG2A-Fc2 (InvivoGen); limits and any linker not sta
T1 sequence: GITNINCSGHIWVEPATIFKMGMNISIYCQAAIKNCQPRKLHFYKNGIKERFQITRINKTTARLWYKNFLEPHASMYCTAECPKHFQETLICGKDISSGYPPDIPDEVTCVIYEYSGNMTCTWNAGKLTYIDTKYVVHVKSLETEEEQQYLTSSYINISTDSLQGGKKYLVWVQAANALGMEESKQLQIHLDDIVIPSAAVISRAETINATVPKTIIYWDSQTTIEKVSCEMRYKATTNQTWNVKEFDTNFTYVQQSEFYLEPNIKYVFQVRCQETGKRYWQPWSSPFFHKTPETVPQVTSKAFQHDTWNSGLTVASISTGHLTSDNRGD
Experiment: antigen ELISA, human IL-23R-mouse Fc immobilized, HRP anti-human IgG, chemiluminescence
readout kind: EC50 (µg/mL)

>>> endpoint_value("fully human 25-3-2 (antibody, human IgG1, kappa, V domains shown, human Ig gamma1 / kappa) VH: QVQLQESGPGLVKPSQTLSLTCSVSGGSIDSGDHYWTWIRQHPGKGLEWIGYIYSSGHTYYSPSLKSRVTISVDTSKNQFSLRLSSVTAADTAVYYCARVGDYEWFDTWGQGTLVTVSS VL: DIVMTQSPDSLAVSLGERATINCKSSQTILYPSNNMNYLGWYQQKPGQSPRLLIYWASTRESGVPDRFSGSGSGTDFTLTISSLQAEDVAVYYCQQYYSSLPTFGQGTKVEIKR")
0.0164
>>> endpoint_value("fully human 25-3-1 (antibody, human IgG1, kappa, V domains shown, human Ig gamma1 / kappa) VH: QVQLQESGPGLVKPSQTLSLTCSVSGGSIDSGDHYWTWIRQHPGKGLEWIGYIYSSGHTYYSPSLKSRVTISVDTSKNQFSLRLSSVTAADTAVYYCARVGDYEWFDTWGQGTLVTVSS VL: DIVMTQSPDSLAVSLGERATINCKSSQTILYPSNNMNYLGWYQQRAGQSPRLLIYWASTRESGVPDRFSGSGSGTDFTLTISSLQAEDVAVYYCQQYYSSLPTFGQGTKVEIKR")
0.0176
>>> endpoint_value("fully human 25-3-4 (antibody, human IgG1, kappa, V domains shown, human Ig gamma1 / kappa) VH: QVQLQESGPGLVKPSQTLSLTCSVSGGSISSGDHYWTWIRQHPGKGLEWIGYIYSSGHTYYSPSLKSRVTISVDTSKNQFSLRLSSVTAADTAVYYCARVGDYEWFDTWGQGTLVTVSS VL: DIVMTQSPDSLAVSLGERATINCKSSQTILYPSNNMNYLGWYQQKPGQSPRLLIYWASTRESGVPDRFSGSGSGTDFTLTISSLQAEDVAVYYCQQYYSSLPTFGQGTKVEIKR")
0.0223
>>> endpoint_value("fully human 25-3 (antibody, human IgG1, kappa, V domains shown, Human Ig gamma1 / human kappa constant regions; expressed in CHO-K1SV cells; also called fully human antibody of 25-3) VH: QVQLQESGPGQVKPSQTLSLTCSVSGGSIDSGDHYWTWIRQHPGEVLEWIGYIYSSGHTYYSPSLKSRLTMSLDTSKNQFSLRLSSVTAADTAVYYCARVGDYEWFDTWGQGTLVTVSS VL: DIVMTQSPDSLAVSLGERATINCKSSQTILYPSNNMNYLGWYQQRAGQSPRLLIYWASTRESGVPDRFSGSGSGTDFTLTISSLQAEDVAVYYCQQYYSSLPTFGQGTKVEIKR")
0.019
>>> endpoint_value("fully human 25-3-3 (antibody, human IgG1, kappa, V domains shown, human Ig gamma1 / kappa) VH: QVQLQESGPGLVKPSQTLSLTCSVSGGSISSGDHYWTWIRQHPGKGLEWIGYIYSSGHTYYSPSLKSRVTISVDTSKNQFSLRLSSVTAADTAVYYCARVGDYEWFDTWGQGTLVTVSS VL: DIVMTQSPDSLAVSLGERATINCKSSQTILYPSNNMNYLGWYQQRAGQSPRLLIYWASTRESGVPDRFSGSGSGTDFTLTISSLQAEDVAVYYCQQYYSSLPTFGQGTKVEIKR")
0.0221
